# method: Pharmacokinetics in Sprague Dawley rats, single subcutaneous or intravenous dose (incl. 10, 30, 100 nmol/kg dose response)
# Format: in vivo
# experimental_conditions: male, Sprague Dawley, rat, plasma, sc, 190 nmol/kg, single subcutaneous dose 190 nmol/kg, individual animal, read-out: CL/F (converted)
*1 amine or outer side, *2 acyl side, *3 side chain or, on linkers, in order; H or OH if unused. [ ]: non-standard residue; d: D form. The star is where a group is joined. C20 diacid = O=C(O)CCCCCCCCCCCCCCCCCCC(=O)*; γGlu = O=C(O)[C@H](CCC(=O)[*:2])N[*:1]; εLys = N[C@@H](CCCCN[*:1])C(=O)[*:2]; αMeL = CC(C)C[C@](C)(N)C(=O)O; AEEA = NCCOCCOCC(=O)O; Aib = CC(C)(N)C(=O)O
readout: CL/F (mL/min/kg)

INSERT INTO results (substance, readout, readout_units, observed_result) VALUES
  ('{C20 diacid-εLys-AEEA-γGlu}-GSPSIVTS[αMeL]DVPT[Aib][αMeL]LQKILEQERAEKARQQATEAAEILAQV-NH2 [SEQ ID NO: 25]', 'CL/F', 'mL/min/kg', 0.136);

====

# method: Pharmacokinetics in Yucatan mini-pigs, single subcutaneous or intravenous dose
# Type: in vivo
# experimental_conditions: male, Yucatan mini-pig, minipig, plasma, sc, 18 nmol/kg, single subcutaneous dose 18 nmol/kg, individual animal, read-out: CL/F (converted)
*1 amine or outer side, *2 acyl side, *3 side chain or, on linkers, in order; H or OH if unused. Side-chain parts run from the residue outwards. [ ]: non-standard residue; d: D form. The star is where a group is joined. C20 diacid = O=C(O)CCCCCCCCCCCCCCCCCCC(=O)*; γGlu = O=C(O)[C@H](CCC(=O)[*:2])N[*:1]; εLys = N[C@@H](CCCCN[*:1])C(=O)[*:2]; pGlu = O=C1CC[C@@H](C(=O)O)N1; αMeL = CC(C)C[C@](C)(N)C(=O)O; AEEA = NCCOCCOCC(=O)O; Aib = CC(C)(N)C(=O)O
readout: CL/F (mL/day/kg)

INSERT INTO assay_data (substance, readout, observed_result) VALUES
  ('[pGlu]GSPSGIVTS[αMeL]DVPT[Aib][αMeL]LQKILEQERAEKARQQAK([γGlu-AEEA-εLys-C20 diacid])EAAEILAQV-NH2 [SEQ ID NO: 22]', 'CL/F', 18.6);

====

# method: Pharmacokinetics in Sprague Dawley rats, single subcutaneous or intravenous dose (incl. 10, 30, 100 nmol/kg dose response)
# Type: in vivo
# experimental_conditions: rat, plasma, sc; single subcutaneous dose 187 nmol/kg, male Sprague Dawley rats, mean; read-out: Cmax
*1 amine or outer side, *2 acyl side, *3 side chain or, on linkers, in order; H or OH if unused. Side-chain parts run from the residue outwards. [ ]: non-standard residue; d: D form. The star is where a group is joined. C20 diacid = O=C(O)CCCCCCCCCCCCCCCCCCC(=O)*; γGlu = O=C(O)[C@H](CCC(=O)[*:2])N[*:1]; εLys = N[C@@H](CCCCN[*:1])C(=O)[*:2]; αMeL = CC(C)C[C@](C)(N)C(=O)O; AEEA = NCCOCCOCC(=O)O; Aib = CC(C)(N)C(=O)O
readout: Cmax (nM)

INSERT INTO results (substance, observed_result) VALUES
  ('Ac-GSPSIVTS[αMeL]DVPT[Aib][αMeL]LQKILEQERAEKARQQAK([γGlu-AEEA-εLys-C20 diacid])EAAEILAQV-NH2 [SEQ ID NO: 1]', 657);

// data source = patent US20250163119A1
